Target: human recombinant NLRP3 protein
Experiment: Binding of NSIs to recombinant NLRP3 protein by microscale thermophoresis (Monolith NT.Automated)
Settings: MST; His-NLRP3 labeled with RED-tris-NTA dye, 40 min incubation in PBS-T; duplicate reads
Reported values of pKd for individual entries
Note on pKd: it is the negative log10 of concentration, concentration in mol/L.

1) COc1ccc(Cl)cc1Cn1cc(-c2ccc(C(=O)N3CCC3)cc2)nn1 [YM-III-11] : 5.52

Consider the additional molecule presented here.
Let me know recorded pKd for COc1ccc(Cl)cc1Cn1cc(C(=O)N2CC(F)(F)C2)nn1 [YM-III-12] , thanks.
6.01
